System: EGFR del19/T790M/C797S (Homo sapiens, UniProt P00533, C797S/DEL746-750/T790M)
Sequence (P00533 with tags, fused parts or gaps DEL746-750/T790M/C797S): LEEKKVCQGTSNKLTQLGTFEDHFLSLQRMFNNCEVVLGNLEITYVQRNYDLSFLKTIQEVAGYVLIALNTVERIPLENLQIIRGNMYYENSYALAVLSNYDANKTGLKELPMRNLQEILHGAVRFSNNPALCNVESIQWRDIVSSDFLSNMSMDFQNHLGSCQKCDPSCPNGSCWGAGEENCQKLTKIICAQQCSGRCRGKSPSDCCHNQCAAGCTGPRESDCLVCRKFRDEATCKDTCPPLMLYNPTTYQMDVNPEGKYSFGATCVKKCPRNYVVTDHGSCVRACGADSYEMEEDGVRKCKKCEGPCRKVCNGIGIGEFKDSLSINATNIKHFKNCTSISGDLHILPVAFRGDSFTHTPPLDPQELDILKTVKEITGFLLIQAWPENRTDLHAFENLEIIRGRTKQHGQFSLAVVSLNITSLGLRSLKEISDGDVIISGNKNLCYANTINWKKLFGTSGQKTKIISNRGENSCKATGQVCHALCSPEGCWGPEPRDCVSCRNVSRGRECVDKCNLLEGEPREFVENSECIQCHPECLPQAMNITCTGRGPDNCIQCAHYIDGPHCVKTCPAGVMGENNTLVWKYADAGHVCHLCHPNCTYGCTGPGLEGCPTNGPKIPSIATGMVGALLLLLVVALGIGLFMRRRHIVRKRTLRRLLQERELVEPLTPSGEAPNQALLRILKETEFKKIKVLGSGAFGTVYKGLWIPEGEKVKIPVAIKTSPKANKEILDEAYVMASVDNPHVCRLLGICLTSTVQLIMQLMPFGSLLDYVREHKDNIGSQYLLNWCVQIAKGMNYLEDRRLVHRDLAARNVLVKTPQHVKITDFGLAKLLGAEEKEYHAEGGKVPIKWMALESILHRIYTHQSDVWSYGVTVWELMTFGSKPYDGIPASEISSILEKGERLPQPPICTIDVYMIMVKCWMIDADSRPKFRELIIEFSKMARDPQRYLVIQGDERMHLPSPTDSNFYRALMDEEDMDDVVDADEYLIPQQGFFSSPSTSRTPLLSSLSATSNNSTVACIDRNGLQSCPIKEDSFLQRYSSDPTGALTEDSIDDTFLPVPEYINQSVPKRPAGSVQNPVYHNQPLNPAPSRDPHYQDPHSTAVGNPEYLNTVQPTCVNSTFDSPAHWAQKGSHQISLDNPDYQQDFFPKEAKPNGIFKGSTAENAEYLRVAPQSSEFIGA
Protocol Summary: Biochemical EGFR kinase assay (Lance Ultra TR-FRET), triple mutant del19/T790M/C797S
Conditions Used: Km ATP; read-out: IC50 del19/T790M/C797S (nM) Km ATP
What IC50 was measured for each of the following?
// units = nM; emit number, no label

Query block: Quick check: IC50 of `C=CCCS(=O)(=O)n1cc(-c2nccc(Nc3cc(N[C@H]4CC[C@@](C)(O)CC4)c(-c4ccn(C(F)F)n4)cn3)n2)cn1` ?
Result block: 0.5

Query block: Quick check: IC50 of `O=S(=O)(C1CC1)n1cc(-c2nccc(Nc3cc(N[C@H]4CC[C@H](O)C4)c(-c4ccn(C(F)F)n4)cn3)n2)cn1` ?
Result block: 0.3

Query block: Quick check: IC50 of `O=S(=O)(C1CC1)n1cc(-c2nccc(Nc3cc(N[C@H]4CC[C@@H](NCC(F)F)CC4)c(-c4csc(C(F)(F)F)n4)cn3)n2)cn1` ?
Result block: 8.5

Query block: Quick check: IC50 of `Cn1ccc(-c2cnc(Nc3ccnc(-c4cnn(S(=O)(=O)C5CC5)c4)n3)cc2NCC2(CO)COC2)n1` ?
Result block: 0.1

Query block: Quick check: IC50 of `O=S(=O)(C1CC1)n1cc(-c2nccc(Nc3cc(N[C@H]4CC[C@@H](NCCF)CC4)c(-c4ccn(CC(F)F)n4)cn3)n2)cn1` ?
Result block: 0.1

Query block: Quick check: IC50 of CCC(C)Nc1cc(Nc2ccnc(-c3cnn(S(=O)(=O)C4CC4)c3)n2)ncc1-c1ccn(CC(F)F)n1 (stereo not drawn) ?
Result block: 0.9

====

What IC50 was measured for each of the following?
System: EGFR del19/C797S (Homo sapiens, UniProt P00533, C797S/DEL746-750)
Sequence (P00533 with tags, fused parts or gaps DEL746-750/C797S): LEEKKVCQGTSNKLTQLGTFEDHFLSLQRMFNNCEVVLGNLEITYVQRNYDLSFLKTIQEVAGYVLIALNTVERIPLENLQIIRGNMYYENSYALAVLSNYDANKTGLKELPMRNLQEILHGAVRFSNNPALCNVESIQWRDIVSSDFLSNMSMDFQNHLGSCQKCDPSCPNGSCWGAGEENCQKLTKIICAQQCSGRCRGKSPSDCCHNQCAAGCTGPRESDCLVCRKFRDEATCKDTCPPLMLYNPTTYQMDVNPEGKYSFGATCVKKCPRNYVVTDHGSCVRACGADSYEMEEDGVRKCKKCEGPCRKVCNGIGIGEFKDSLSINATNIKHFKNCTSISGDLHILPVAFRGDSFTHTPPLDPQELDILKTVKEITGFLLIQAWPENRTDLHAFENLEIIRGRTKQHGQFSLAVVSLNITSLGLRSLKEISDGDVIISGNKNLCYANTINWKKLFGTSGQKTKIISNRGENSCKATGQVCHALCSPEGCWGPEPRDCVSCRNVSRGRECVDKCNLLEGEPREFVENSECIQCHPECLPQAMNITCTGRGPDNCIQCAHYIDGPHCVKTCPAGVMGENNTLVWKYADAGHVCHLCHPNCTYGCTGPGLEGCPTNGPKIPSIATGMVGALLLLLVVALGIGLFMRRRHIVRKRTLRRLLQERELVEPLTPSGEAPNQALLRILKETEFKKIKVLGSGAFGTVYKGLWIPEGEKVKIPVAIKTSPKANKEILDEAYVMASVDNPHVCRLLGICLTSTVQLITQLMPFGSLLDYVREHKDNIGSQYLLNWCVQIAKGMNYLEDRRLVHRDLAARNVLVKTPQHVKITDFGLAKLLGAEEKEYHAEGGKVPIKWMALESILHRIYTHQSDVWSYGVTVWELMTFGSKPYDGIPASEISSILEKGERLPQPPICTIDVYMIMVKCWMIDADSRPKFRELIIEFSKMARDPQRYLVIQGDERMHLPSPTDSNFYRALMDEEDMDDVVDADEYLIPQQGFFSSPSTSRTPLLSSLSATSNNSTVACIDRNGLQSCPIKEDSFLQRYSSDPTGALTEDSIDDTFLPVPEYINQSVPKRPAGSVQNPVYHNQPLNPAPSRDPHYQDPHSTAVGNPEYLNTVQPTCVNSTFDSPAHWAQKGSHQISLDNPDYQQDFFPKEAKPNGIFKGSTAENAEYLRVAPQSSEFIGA
Protocol Summary: Biochemical EGFR kinase assay (Lance Ultra TR-FRET), double mutant del19/C797S
Conditions Used: IC50 del19/C797S (nM) 100 μM ATP, 100 μM ATP
Description: Biochemical EGFR kinase assays were conducted using Lance Ultra time-resolved fluorescence resonance energy transfer (TR-FRET) technology from Perkin-Elmer. […] Each kinase reactions were incubated at room temperature for 1 hour and then stopped by the addition of 4 μL of stop solution (10 mM EDTA). […] After 60 minutes incubation at room temperature the LANCE signal was measured on an EnVision Multilabel Reader (Perkin-Elmer). […]
// units = nM; emit number, no label

Query block: Quick check: IC50 of `O=S(=O)(C1CC1)n1cc(-c2nccc(Nc3cc(NCC4(CO)COC4)c(-c4ccn(C(F)F)n4)cn3)n2)cn1` ?
Result block: 2.2

Query block: Quick check: IC50 of `CN(CC(F)F)C(=O)[C@H]1CC[C@@H](Nc2cc(Nc3ccnc(-c4cnn(S(=O)(=O)C5CC5)c4)n3)ncc2-c2ccn(C(F)F)n2)CC1` ?
Result block: 4

Query block: Quick check: IC50 of `O=S(=O)(C1CC1)n1cc(-c2nccc(Nc3cc(NC[C@H]4CC[C@H](O)CC4)c(-c4ccn(C(F)F)n4)cn3)n2)cn1` ?
Result block: 1.3

Query block: Quick check: IC50 of `O=S(=O)(C1CC1)n1cc(-c2nccc(Nc3cc(N[C@H]4CC[C@H](CO)CC4)c(-c4ccn(C(F)F)n4)cn3)n2)cn1` ?
Result block: 2.2

Query block: Quick check: IC50 of `O=S(=O)(C1CC1)n1cc(-c2nccc(Nc3cc(N[C@H]4CC[C@](O)(CO)CC4)c(-c4cc5n(n4)CCCC5)cn3)n2)cn1` ?
Result block: 0.6

Query block: Quick check: IC50 of `Cn1nc(-c2cnc(Nc3ccnc(-c4cnn(S(=O)(=O)C5CC5)c4)n3)cc2N[C@H]2CC[C@@](C)(O)CC2)cc1C(C)(C)O` ?
Result block: 0.9

Query block: Quick check: IC50 of `Cn1ccc(-c2cnc(Nc3ccnc(-c4cnn(S(=O)(=O)C5CC5)c4)n3)cc2N[C@H]2CC[C@@H](O)CC2)n1` ?
Result block: 0.7

Query block: Quick check: IC50 of O=S(=O)(C1CC1)n1cc(-c2nccc(Nc3cc(NC4CC(O)C4)c(-c4ccn(C(F)F)n4)cn3)n2)cn1 (centres unmarked) ?
Result block: 7.6

Query block: Quick check: IC50 of `O=S(=O)(C1CC1)n1cc(-c2nccc(Nc3cc(N[C@H]4CC[C@](O)(CO)CC4)c(-c4ccn(C(F)F)n4)cn3)n2)cn1` ?
Result block: 0.3

Query block: Quick check: IC50 of `CC(C)(O)c1nc(-c2cnc(Nc3ccnc(-c4cnn(S(=O)(=O)C5CC5)c4)n3)cc2N[C@H]2CC[C@@](C)(O)CC2)cs1` ?
Result block: 5.3

Query block: Quick check: IC50 of `Cc1cc(-c2cnc(Nc3ccnc(-c4cnn(S(=O)(=O)C5CC5)c4)n3)cc2N[C@H]2CC[C@@](C)(O)CC2)nn1C` ?
Result block: 0.6

Query block: Quick check: IC50 of CC(O)C(C)(C)Nc1cc(Nc2ccnc(-c3cnn(S(=O)(=O)C4CC4)c3)n2)ncc1-c1ccn(C)n1 (centres unmarked) ?
Result block: 57.7

Query block: Quick check: IC50 of `Cn1ccc(-c2cnc(Nc3ccnc(-c4cnn(S(=O)(=O)C5CC5)c4)n3)cc2N[C@H]2CC[C@H](CO)CC2)n1` ?
Result block: 0.8

Query block: Quick check: IC50 of `CCS(=O)(=O)n1cc(-c2nccc(Nc3cc(N[C@H]4CC[C@@](C)(O)CC4)c(-c4ccn(C(F)F)n4)cn3)n2)cn1` ?
Result block: 0.4

Query block: Quick check: IC50 of `CN(CC(F)F)C[C@H]1CC[C@@H](Nc2cc(Nc3ccnc(-c4cnn(S(=O)(=O)C5CC5)c4)n3)ncc2-c2ccn(C(F)F)n2)CC1` ?
Result block: 26.9

Query block: Quick check: IC50 of `C[C@]1(O)CC[C@@H](Nc2cc(Nc3ccnc(-c4cnn(C5CC5)c4)n3)ncc2-c2ccn(C(F)F)n2)CC1` ?
Result block: 37.2

Query block: Quick check: IC50 of `O=S(=O)(C1CC1)n1cc(-c2nccc(Nc3cc(NC[C@H]4C[C@H](O)C4)c(-c4ccn(C(F)F)n4)cn3)n2)cn1` ?
Result block: 4.2

Query block: Quick check: IC50 of `CN(C)C(=O)[C@H]1CC[C@@H](Nc2cc(Nc3ccnc(-c4cnn(S(=O)(=O)C5CC5)c4)n3)ncc2-c2ccn(C)n2)CC1` ?
Result block: 1.1

Query block: Quick check: IC50 of `C[C@]1(O)CC[C@@H](Nc2cc(Nc3ccnc(-c4cnn(S(=O)(=O)C5CC5)c4)n3)ncc2-c2ccn(C3CC3)n2)CC1` ?
Result block: 0.5

Query block: Quick check: IC50 of O=S(=O)(C1CC1)n1cc(-c2nccc(Nc3cc(NC4CCC(F)(CO)CC4)c(-c4ccn(C(F)F)n4)cn3)n2)cn1 (centres unmarked) ?
Result block: 11.9

Query block: Quick check: IC50 of CN(C)CC1(C)CCC(Nc2cc(Nc3ccnc(-c4cnn(S(=O)(=O)C5CC5)c4)n3)ncc2-c2ccn(C)n2)CC1 (centres unmarked) ?
Result block: 4.9

Query block: Quick check: IC50 of `CN(C)S(=O)(=O)n1cc(-c2nccc(Nc3cc(N[C@H]4CC[C@@](C)(O)CC4)c(-c4ccn(C(F)F)n4)cn3)n2)cn1` ?
Result block: 16.8

Query block: Quick check: IC50 of CN(C)CC1(C)CCC(Nc2cc(Nc3ccnc(-c4cnn(S(=O)(=O)C5CC5)c4)n3)ncc2-c2ccn(CC(F)(F)F)n2)CC1 (centres unmarked) ?
Result block: 8.8

Query block: Quick check: IC50 of `O=S(=O)(C1CC1)n1cc(-c2nccc(Nc3cc(N[C@H]4CC[C@@H](NCC(F)F)CC4)c(-c4csc(C(F)(F)F)n4)cn3)n2)cn1` ?
Result block: 14.2

Query block: Quick check: IC50 of CC1(O)CCC(Nc2cc(Nc3ccnc(-c4cnn(C5CCCCO5)c4)n3)ncc2-c2ccn(C(F)F)n2)CC1 (centres unmarked) ?
Result block: 300

Query block: Quick check: IC50 of `Cn1ccc(-c2cnc(Nc3ccnc(-c4cnn(S(=O)(=O)C5CC5)c4)n3)cc2N[C@H]2CC[C@H](CCO)CC2)n1` ?
Result block: 0.8
